molecular target: AChE (type VI-S, from electric eel) (Electrophorus electricus, UniProt O42275); construct: purchased type VI-S; test: AChE inhibition, adaptation of Ellman's method; format: biochemical; details: means of three independent experiments ± SD, read-out: TcAChE Inhibition IC50
Sequence (O42275 24-633): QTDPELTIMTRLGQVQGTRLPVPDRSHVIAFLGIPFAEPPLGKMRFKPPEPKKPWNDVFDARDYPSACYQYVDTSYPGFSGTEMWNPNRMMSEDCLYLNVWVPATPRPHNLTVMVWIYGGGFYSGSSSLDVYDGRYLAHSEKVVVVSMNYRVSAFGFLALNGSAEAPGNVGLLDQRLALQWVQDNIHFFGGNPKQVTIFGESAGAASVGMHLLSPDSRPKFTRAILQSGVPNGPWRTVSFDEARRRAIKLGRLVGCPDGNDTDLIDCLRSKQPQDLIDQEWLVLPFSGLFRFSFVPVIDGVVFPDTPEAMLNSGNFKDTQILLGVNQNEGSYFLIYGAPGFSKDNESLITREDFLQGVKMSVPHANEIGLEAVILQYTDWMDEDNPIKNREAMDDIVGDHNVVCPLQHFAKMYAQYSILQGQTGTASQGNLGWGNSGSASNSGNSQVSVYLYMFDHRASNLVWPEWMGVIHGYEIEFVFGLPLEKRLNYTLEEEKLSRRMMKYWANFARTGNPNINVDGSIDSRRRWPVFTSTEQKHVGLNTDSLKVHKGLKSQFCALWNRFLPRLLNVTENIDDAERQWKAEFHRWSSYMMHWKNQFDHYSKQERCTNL
Measure name: pIC50
// pIC50 is dimensionless: -log10 of concentration (M)

{"Compound": "O=C(NCC1CCCN(Cc2ccccc2)C1)c1ccc2nc(-c3ccccc3O)[nH]c2c1 (centres unmarked) [Compound 3]", "Measured value": 5.30}
{"Compound": "COc1ccc(-c2nc3ccc(C(=O)NCCN4CCN(Cc5ccccc5)CC4)cc3[nH]2)c(O)c1 [Compound 9]", "Measured value": 5.73}
{"Compound": "O=C(NCC1CCN(Cc2ccccc2)CC1)c1ccc2[nH]c(-c3cc(F)ccc3O)nc2c1 [Compound 6]", "Measured value": 5.78}

[in] Answer briefly: pIC50 recorded on AChE (type VI-S, from electric eel) (Electrophorus electricus, UniProt O42275) for O=C(NCC1CCCCN1Cc1ccccc1)c1ccc2nc(-c3ccccc3O)[nH]c2c1 (centres unmarked) [Compound 4]
[out] 4.85

###

inhibition at 40 µM overview
target: Aβ1–42 (Homo sapiens); assay: Inhibition of self-mediated Aβ1–42 aggregation (thioflavin T fluorescence); format: biochemical; conditions: inhibitor 40 µM, Aβ1–42 40 μM, 24 h, 37 °C; read-out: Aβ1–42 Aggregation Inhibition, Self-Induced
State just the number; it will be interpreted in %.

Below: 7 molecules and their reported inhibition at 40 µM.
{"Molecule": "O=C(NCCN1CCN(Cc2ccccn2)CC1)c1ccc2nc(-c3ccccc3O)[nH]c2c1 [Compound 12]", "Readout units": "%", "Measured value": 30.1}
{"Molecule": "O=C(NCCN1CCN(Cc2ccccc2)CC1)c1ccc2[nH]c(-c3cc([N+](=O)[O-])ccc3O)nc2c1 [Compound 7]", "Readout units": "%", "Measured value": 57.6}
{"Molecule": "O=C(NCCN1CCN(Cc2ccccc2F)CC1)c1ccc2nc(-c3ccccc3O)[nH]c2c1 [Compound 10]", "Readout units": "%", "Measured value": 39.1}
{"Molecule": "O=C(NCC1CCN(Cc2ccccc2)CC1)c1ccc2[nH]c(-c3cc(F)ccc3O)nc2c1 [Compound 6]", "Readout units": "%", "Measured value": 51.2}
{"Molecule": "O=C(NCCN1CCN(Cc2ccccc2[N+](=O)[O-])CC1)c1ccc2nc(-c3ccccc3O)[nH]c2c1 [Compound 11]", "Readout units": "%", "Measured value": 22.7}
{"Molecule": "O=C(NCCN1CCN(Cc2ccccc2)CC1)c1ccc2[nH]c(-c3cc(F)ccc3O)nc2c1 [Compound 8]", "Readout units": "%", "Measured value": 50.6}
{"Molecule": "COc1ccc(-c2nc3ccc(C(=O)NCCN4CCN(Cc5ccccc5)CC4)cc3[nH]2)c(O)c1 [Compound 9]", "Readout units": "%", "Measured value": 43.7}

--- query ---
[in] Indicate its recorded inhibition at 40 µM; the molecule in question is O=C(NCC1CCCN(Cc2ccccc2)C1)c1ccc2nc(-c3ccccc3O)[nH]c2c1 (centres unmarked) [Compound 3]
[out] 71.4

###

target: AChE (type VI-S, from electric eel) (Electrophorus electricus); construct: purchased type VI-S; assay: AChE inhibition, adaptation of Ellman's method; type: biochemical; settings: means of three independent experiments ± SD, read-out: TcAChE Inhibition IC50
Measure name: pIC50
// pIC50 is dimensionless: -log10 of concentration (M)

Below: 3 compounds and their reported pIC50.
{"Chemical string": "O=C(NCCN1CCN(Cc2ccccc2F)CC1)c1ccc2nc(-c3ccccc3O)[nH]c2c1", "pIC50": 5.36}
{"Chemical string": "O=C(NCCN1CCN(Cc2ccccc2)CC1)c1ccc2[nH]c(-c3cc(F)ccc3O)nc2c1", "pIC50": 5.37}
{"Chemical string": "O=C(NCCN1CCN(Cc2ccccc2)CC1)c1ccc2[nH]c(-c3cc([N+](=O)[O-])ccc3O)nc2c1", "pIC50": 4.68}

--- query ---
[in] Indicate its recorded pIC50; the compound in question is "O=C(NCCN1CCN(Cc2ccccc2[N+](=O)[O-])CC1)c1ccc2nc(-c3ccccc3O)[nH]c2c1"
[out] 4.70

###

inhibition at 40 µM overview
molecular target: Aβ1–42 with Cu(II) (Homo sapiens); assay: Inhibition of Cu-induced Aβ1–42 aggregation (thioflavin T fluorescence); format: biochemical; settings: inhibitor 40 µM, copper 40 µM, Aβ1–42 40 μM, 24 h, 37 °C
Sequence (P05067 672-713): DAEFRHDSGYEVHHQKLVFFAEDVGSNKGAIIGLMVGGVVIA
State just the number; it will be interpreted in %.

Below: 2 molecules and their reported inhibition at 40 µM.
{"Molecule": "O=C(NCCN1CCN(Cc2ccccc2)CC1)c1ccc2[nH]c(-c3cc(F)ccc3O)nc2c1", "Measured value": 55.2}
{"Molecule": "O=C(NCCN1CCN(Cc2ccccc2[N+](=O)[O-])CC1)c1ccc2nc(-c3ccccc3O)[nH]c2c1", "Measured value": 43.5}

[in] Answer briefly: inhibition at 40 µM recorded on Aβ1–42 with Cu(II) (Homo sapiens) for "O=C(NCCN1CCN(Cc2ccccc2F)CC1)c1ccc2nc(-c3ccccc3O)[nH]c2c1"
[out] 75.8

[in] Answer briefly: inhibition at 40 µM recorded on Aβ1–42 with Cu(II) (Homo sapiens) for "O=C(NCC1CCN(Cc2ccccc2)CC1)c1ccc2[nH]c(-c3cc(F)ccc3O)nc2c1"
[out] 61

[in] Answer briefly: inhibition at 40 µM recorded on Aβ1–42 with Cu(II) (Homo sapiens) for O=C(NCC1CCCN(Cc2ccccc2)C1)c1ccc2nc(-c3ccccc3O)[nH]c2c1 (centres unmarked)
[out] 81.8

[in] Answer briefly: inhibition at 40 µM recorded on Aβ1–42 with Cu(II) (Homo sapiens) for "O=C(NCCN1CCN(Cc2ccccn2)CC1)c1ccc2nc(-c3ccccc3O)[nH]c2c1"
[out] 44.4

[in] Answer briefly: inhibition at 40 µM recorded on Aβ1–42 with Cu(II) (Homo sapiens) for "COc1ccc(-c2nc3ccc(C(=O)NCCN4CCN(Cc5ccccc5)CC4)cc3[nH]2)c(O)c1"
[out] 66

[in] Answer briefly: inhibition at 40 µM recorded on Aβ1–42 with Cu(II) (Homo sapiens) for "O=C(NCCN1CCN(Cc2ccccc2)CC1)c1ccc2[nH]c(-c3cc([N+](=O)[O-])ccc3O)nc2c1"
[out] 71.4
